ASSAY_TEXT: NCI Yeast Anticancer Drug Screen. Data for the mec2-1 strain (AID 157)
STATED_CONDITIONS: S. cerevisiae mec2-1 strain, at 100.0 µM, hits give high values
The panel holds about 79,000 compounds, 15% with a hit somewhere; the sample as a whole holds those more often.
# growth inhibition >= 50% gives fulfilled, anything below gives not fulfilled

Completed entries (count: 3):
>>> label_class("O=C(Nc1ccc(Cl)cc1)OCC#CCCl")
"not fulfilled"
>>> label_class("O=C1OC(CCl)CN1/N=C/c1ccc([N+](=O)[O-])o1 (centres undefined)")
"not fulfilled"
>>> label_class("c1ccc2c(c1)sc1nc3ccncc3nc12")
"not fulfilled"

[in] Given the entry `O=C(O)c1cccc(-c2c3ccc(=O)cc-3oc3cc(O)ccc23)c1` , answer whether its growth inhibition meets or surpasses 50%.
[out] fulfilled

[in] Given the entry `COc1cc(C(=O)/C=C/c2ccccc2O)ccc1O` , answer whether its growth inhibition meets or surpasses 50%.
[out] fulfilled

[in] Given the entry N#Cc1ccc(C2NN=CC23C(=O)c2ccccc2OC3c2ccccc2)cc1 (centres undefined) , answer whether its growth inhibition meets or surpasses 50%.
[out] not fulfilled

[in] Given the entry `CC(=O)ON1C(=O)c2cccc3cccc(c23)C1=O` , answer whether its growth inhibition meets or surpasses 50%.
[out] fulfilled

[in] Given the entry O=C(c1ccc(Cl)cc1)C1OC12C(=O)Nc1ccccc12 (centres undefined) , answer whether its growth inhibition meets or surpasses 50%.
[out] fulfilled

[in] Given the entry `CC/C(=C(\c1ccccc1)c1ccc(OCCN(C)C)cc1)c1ccccc1` , answer whether its growth inhibition meets or surpasses 50%.
[out] fulfilled

[in] Given the entry `COc1cc2c3c(cccc3c1)C(=O)N(CCN(C)C)C2=O` , answer whether its growth inhibition meets or surpasses 50%.
[out] not fulfilled

[in] Given the entry `C#CCCCc1ccccc1` , answer whether its growth inhibition meets or surpasses 50%.
[out] fulfilled

[in] Given the entry `NC(=O)NN=C(CS)CS` , answer whether its growth inhibition meets or surpasses 50%.
[out] fulfilled

[in] Given the entry `CCS(=O)(=O)c1ccc(/C=C/C=N/NC(=S)NCC(C)C)cc1` , answer whether its growth inhibition meets or surpasses 50%.
[out] not fulfilled

[in] Given the entry `Cc1ccc(NN(NC(=O)OC(C)C)C(=O)OC(C)C)cc1` , answer whether its growth inhibition meets or surpasses 50%.
[out] not fulfilled

[in] Given the entry `O=C(O)CNc1ccc(Cl)c(Cl)c1` , answer whether its growth inhibition meets or surpasses 50%.
[out] fulfilled

[in] Given the entry `O=[N+]([O-])c1ccc([N+]2=NC(c3ccccc3)=NN(c3ccccc3)C2)cc1` , answer whether its growth inhibition meets or surpasses 50%.
[out] not fulfilled

[in] Given the entry O=C(O)C1OC1(c1cccc(Cl)c1)c1ccccc1Cl (centres undefined) , answer whether its growth inhibition meets or surpasses 50%.
[out] fulfilled

[in] Given the entry `C[C@H](CCC(=O)NN)[C@H]1CC[C@H]2[C@@H]3CC[C@@H]4C[C@H](O)CC[C@]4(C)[C@H]3CC[C@]12C` , answer whether its growth inhibition meets or surpasses 50%.
[out] not fulfilled

[in] Given the entry `O=[N+]([O-])c1cccc2nccc(NCCCO)c12` , answer whether its growth inhibition meets or surpasses 50%.
[out] fulfilled

[in] Given the entry O=C(Nc1ccccc1)C(=O)C(C(=O)c1ccccc1)C(c1ccccc1)c1ccccc1 (centres undefined) , answer whether its growth inhibition meets or surpasses 50%.
[out] not fulfilled

[in] Given the entry `Cn1c2ccccc2c(=O)c2cc(NC(=O)CCCCC(=O)Nc3ccc4c(c3)c(=O)c3ccccc3n4C)ccc21` , answer whether its growth inhibition meets or surpasses 50%.
[out] not fulfilled

* * *

ASSAY_TEXT: NCI Yeast Anticancer Drug Screen. Data for the sgs1 strain (AID 173);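 further: 0% = growth of vehicle-only control cultures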
STATED_CONDITIONS: S. cerevisiae sgs1 mutant, at 3.7 µM, hits give high values
About 79,000 compounds went through this panel and 15% of them were active in at least one assay; those are over-represented in the sample as a whole.
MEASURE_NAME: growth inhibition (%)
Output spec: scalar in %, unitless text.

Reference set, count: 2
>>> measured_value("O=[N+]([O-])c1ccc([N+]2=NC(c3ccccc3)=NN(c3ccccc3)C2)cc1")
1
>>> measured_value("COc1ccc2nc3cccc([N+](=O)[O-])c3c(NCCN(CCO)CCO)c2c1")
90

Query compound follows.
Note to self: growth inhibition recorded for COc1cc(C2c3cc4c(cc3OC(NNc3ccccc3)C2C)OCO4)cc(OC)c1OC (centres undefined) was 37

* * *

ASSAY_TEXT: NCI Yeast Anticancer Drug Screen. Data for the mec2-1 strain (AID 157)
STATED_CONDITIONS: S. cerevisiae mec2-1 strain, at 33.0 µM, hits give high values
This is part of a sample that, as a whole, favours compounds with a hit. Of some 79,000 tested, about 15% had one in any assay.
MEASURE_NAME: growth inhibition (%)
Output spec: scalar in %, unitless text.

>>> measured_value("CCOC(=O)c1cc([N+](=O)[O-])cc([N+](=O)[O-])c1Sc1ncnc2nc[nH]c12")
65

Note to self: growth inhibition recorded for OCC(Cn1cncn1)(c1ccc(F)cc1F)n1cncn1 (stereo not given) was 53

Note to self: growth inhibition recorded for Cc1c(C(Cc2ccccc2N(C)C(=O)/C=C\C(=O)O)c2c[nH]c3ccccc23)c2ccccc2n1C (stereo not given) was 2

Note to self: growth inhibition recorded for `CC(=O)[O][Bi]([c]1ccccc1)[c]1ccccc1` was 90

Note to self: growth inhibition recorded for COC1=CC(=O)C(C2(OC(C)C)OC(=O)C(Cl)=C2Cl)=CC1=O (stereo not given) was 100

* * *

ASSAY_TEXT: NCI Yeast Anticancer Drug Screen. Data for the sgs1 strain (AID 173);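 further: 0% = growth of vehicle-only control cultures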
STATED_CONDITIONS: S. cerevisiae sgs1 mutant, at 100.0 µM, hits give high values
Compounds without any hit were thinned out: in the full panel of roughly 79,000, 15% have a hit.
# growth inhibition annotations
Output spec: scalar in %, unitless text.

>>> measured_value("c1ccc2c(c1)sc1nc3ccncc3nc12")
13
>>> measured_value("CC(C)/C(Cl)=N\\OC(=O)Nc1ccc(F)cc1")
99
>>> measured_value("Cc1cc2c(cc1C(=O)CCC(=O)O)CC1(C2)Cc2cc(C)c(C(=O)CCC(=O)O)cc2C1")
69
>>> measured_value("O=C1c2ccccc2-c2nc3ccccc3nc21")
36
>>> measured_value("CC(O)C(O)C(O)C(/C=N\\Nc1ccccc1)=N/Nc1ccccc1 (centres undefined)")
98
>>> measured_value("CCN(CC)C(C)(C)C(=O)/C=C/c1ccccc1")
7
>>> measured_value("[N-]=[N+]=NC1=C(c2ccccn2)C(=O)c2cccc3cccc1c23")
67
>>> measured_value("Cc1ccc(S/N=C\\c2ccccc2O)cc1")
6

Note to self: growth inhibition recorded for C=CCC1=C(C)C(OC(=O)/C=C/c2ccccc2)CC1=O (centres undefined) was 53

Note to self: growth inhibition recorded for COc1cc(C2C3=C(COC3=O)Oc3cc4c(cc32)OCO4)ccc1O (centres undefined) was 59

Note to self: growth inhibition recorded for `CCS(=O)(=O)c1ccc(/C=C/C=N/NC(=S)NCC(C)C)cc1` was 48

Note to self: growth inhibition recorded for `NC(=S)N/N=C\c1nccc2ccccc12` was 99

Note to self: growth inhibition recorded for OCC(Cn1cncn1)(c1ccc(F)cc1F)n1cncn1 (centres undefined) was 70

Note to self: growth inhibition recorded for `O=[N+]([O-])c1cccc([N+](=O)[O-])c1S(=O)(=O)c1ccccc1` was 94

* * *

ASSAY_TEXT: NCI Yeast Anticancer Drug Screen. Data for the CLN2oe strain (AID 163);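 further: 0% = growth of vehicle-only control cultures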
STATED_CONDITIONS: S. cerevisiae CLN2oe strain, at 3.7 µM, hits give high values
Protocol: Growth inhibition of yeast strains with defined genetic alterations is measured as a screen for potential anti-cancer activity. Selected strains with alterations in DNA damage repair or cell cycle control were exposed to compounds and growth inhibition was measured relative to vehicle treated controls. The strain used in this assay is CLN2oe
About 79,000 compounds went through this panel and 15% of them were active in at least one assay; those are over-represented in the sample as a whole.
# growth inhibition annotations
Output spec: scalar in %, unitless text.

Reference set, count: 10
>>> measured_value("CC(=O)N/N=C/C(C)(C)C(C)(C)/C=N/NC(C)=O")
11
>>> measured_value("CCNc1nnc(CSc2nc(-c3ccccc3)c(-c3ccccc3)[nH]2)s1")
-7
>>> measured_value("CC(C)(Br)C(=O)/C=C/c1ccc(Cl)c(Cl)c1")
-1
>>> measured_value("Cc1cc(O)cc(O)c1N=Nc1ccc([N+](=O)[O-])cc1")
22
>>> measured_value("COC1=CC(=O)C(C2(OC(C)C)OC(=O)C(Cl)=C2Cl)=CC1=O (configuration not stated)")
87
>>> measured_value("FC(F)(F)c1cc(NC(=S)N2c3ccccc3-n3cccc3C2c2cccnc2)cc(C(F)(F)F)c1 (configuration not stated)")
-2
>>> measured_value("CCOC(=O)c1cnc2c(C(F)(F)F)cccc2c1N=[N+]=[N-]")
-1
>>> measured_value("Cn1c(N)nc(-c2ccc(Cl)cc2)c1SSc1c(-c2ccc(Cl)cc2)nc(N)n1C")
-2
>>> measured_value("CN(C)c1ccc(C(C#N)=C(C#N)C#N)cc1")
7
>>> measured_value("S=C(Nc1ccc(Cl)cc1)SC1CCCCC1")
-7

Note to self: growth inhibition recorded for CC(Br)C(=O)c1ccc2cc(Br)c3ccccc3c2c1 (configuration not stated) was -2

Note to self: growth inhibition recorded for `[O-][n+]1c2ccc(O)cc2nc2ccc(Br)cc21` was 21

Note to self: growth inhibition recorded for `CCC(=O)c1cccc2ccccc12` was 2

Note to self: growth inhibition recorded for COc1cc(C2c3cc4c(cc3OC(Nc3ccccc3)C2C)OCO4)cc(OC)c1O (configuration not stated) was 0

Note to self: growth inhibition recorded for `CCN(CC)C(=S)N/N=C(/C)c1cccc(/C(C)=N\NC(=S)N(CC)CC)n1` was 16

Note to self: growth inhibition recorded for `CCOC(=O)C1=C(C(=O)c2ccccc2)C(c2ccccc2[N+](=O)[O-])C(C(=O)c2ccccc2)=C(C(=O)OCC)N1` was 0

Note to self: growth inhibition recorded for `Cc1ccc(S(=O)(=O)NCCSS(=O)(=O)c2ccc(C)cc2)cc1` was -16

Note to self: growth inhibition recorded for `O=C(NCCCCNCCCNC(=O)c1cc(-c2ccccc2)nc2ccccc12)c1cc(-c2ccccc2)nc2ccccc12` was -1

Note to self: growth inhibition recorded for CCC(C(=O)O)C1=C(c2ccccc2)CCc2ccccc21 (configuration not stated) was 23

Note to self: growth inhibition recorded for `CCOC(=O)c1cc([N+](=O)[O-])cc([N+](=O)[O-])c1Sc1ncnc2nc[nH]c12` was -33

Note to self: growth inhibition recorded for O=C1C2CC[C@@H]3C(=O)C(Cl)(Cl)[C@@H]3CCC2C1(Cl)Cl (some centres not stated) was 0

Note to self: growth inhibition recorded for COc1cc(C2C3=C(COC3=O)Oc3cc4c(cc32)OCO4)ccc1O (configuration not stated) was 8
